Cited source: ChEMBL document CHEMBL1154969

Hi there, I'd appreciate the recorded pIC50 for every entry that follows.
system_under_test: Vitamin D3 receptor (Homo sapiens)
Sequence (P11473 whole entry, the tested form may be a part): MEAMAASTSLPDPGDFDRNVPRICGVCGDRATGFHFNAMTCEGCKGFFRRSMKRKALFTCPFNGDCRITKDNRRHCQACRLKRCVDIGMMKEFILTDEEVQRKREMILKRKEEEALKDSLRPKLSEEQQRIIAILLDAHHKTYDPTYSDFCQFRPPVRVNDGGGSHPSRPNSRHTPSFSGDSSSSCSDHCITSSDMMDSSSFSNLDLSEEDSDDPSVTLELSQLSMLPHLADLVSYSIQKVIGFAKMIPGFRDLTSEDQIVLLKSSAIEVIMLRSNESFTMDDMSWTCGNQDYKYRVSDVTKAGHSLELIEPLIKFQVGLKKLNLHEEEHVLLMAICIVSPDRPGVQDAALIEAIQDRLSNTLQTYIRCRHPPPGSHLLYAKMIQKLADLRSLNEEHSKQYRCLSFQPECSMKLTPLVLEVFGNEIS
measurement_description: Antagonist activity at human recombinant VDR LBD expressed in HEK293 cells assessed as inhibition of 3 nM 1,25-(OH)2D3-induced transcriptional activation after 16 to 18 hrs by GAL4-dependent luciferase reporter gene assay
Assay type: functional, cell-based
In simple prose, pIC50 is minus the logarithm base ten of a concentration in moles per litre.

Report pIC50 for CC(C)CCN1Cc2cc(CC(C)C)c(N)cc2N[C@@H](CC(C)C)C1=O tested on Vitamin D3 receptor (Homo sapiens).
4.52

Report pIC50 for C=C1/C(=C\C=C2/CCC[C@]3(C)[C@@H]([C@H](C)C[C@H]4C[C@@](C)(O)C(=O)N4CCc4ccccc4)CC[C@@H]23)C[C@@H](O)C[C@@H]1O tested on Vitamin D3 receptor (Homo sapiens).
6.66

Report pIC50 for CC(C)=Cc1cc2c(cc1N)N[C@@H](CC(C)C)C(=O)N(CCC(C)C)C2 tested on Vitamin D3 receptor (Homo sapiens).
4.77

* * *

system_under_test: Vitamin D3 receptor (Homo sapiens)
measurement_description: Displacement of 1,25-dihydroxyvitamin D3 from GST-tagged VDR ligand binding domain assessed as inhibition of interaction with coactivator proteins by TR-FRET assay
measured_endpoint: pIC50
In simple prose, pIC50 is minus the logarithm base ten of a concentration in moles per litre.

Record request: pIC50 value, item CC(C)CCN1Cc2cc(CC(C)C)c(NCCNC(=O)OC(C)(C)C)cc2N[C@@H](CC(C)C)C1=O
4.89

Record request: pIC50 value, item CC(C)CCN1Cc2cc(CC(C)C)c(NCCN)cc2N[C@@H](CC(C)C)C1=O
4.55

Record request: pIC50 value, item CC(C)=Cc1cc2c(cc1N)N[C@@H](CC(C)C)C(=O)N(CCC(C)C)C2
4.70

Record request: pIC50 value, item CC(C)CCN1Cc2cc(CC(C)C)c(N)cc2N[C@@H](CC(C)C)C1=O
4.52
